B1: Hairpin Ribozyme (parent)
chain: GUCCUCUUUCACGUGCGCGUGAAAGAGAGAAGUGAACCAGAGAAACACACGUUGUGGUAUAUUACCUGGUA

- Variants of: B1
- experiment: self-cleavage, relative activity (ratio to wild type); higher = more cleavage; co-transcriptional
I'd be grateful if you could share measured self-cleavage for these entries.
One number for each entry.

Examples with their reported self-cleavage follow.
sequence string	self-cleavage
GUCCUCUUUCACGUGCGCGUGAAAGAGAGAAGUGAACCAGAGAAACACACGUUAUGGUAUAUUACGUGGUA [G54A C66G]	0.113
GUCCUCUUUCACGUGCGCGUGAAAGAGAGAAGAGAACCAGAUAAACACACGUUGUGGUAUAUUACCUGGUA [U33A G42U]	0.181
GUCCUCUUUCACGUGCGCGUGAAAGAGAGAAGUCAACCAGAGAAACACACAUUGUGGUAUAUUACCUGGUA [G34C G51A]	1.61
GUCCUCUUUCACGUGCGCGUGAAAGAGCGAAGUGAACCAGAGAAACACACGUUGUGGUAUAUGACCUGGUA [A28C U63G]	0.176
GACCUCUUUCACGUGCGCGUGAAAGAGAGAAGUGAACCAGAGAAACACACGUUGUGGUAUAUUCCCUGGUA [U2A A64C]	0.112
GUCCUCUUUCAUGUGCGCGUGAAAGAGAGAAGUGAACCAGAGAAAUACACGUUGUGGUAUAUUACCUGGUA [C12U C46U]	0.174

Parameter requested: self-cleavage. Apply to each item below.
1. AUCCUCUUUCACGUGCGCCUGAAAGAGAGAAGUGAACCAGAGAAACACACGUUGUGGUAUAUUACCUGGUA [G1A G19C]
2. GUCCUCUUUCAUGUGCGCGUGAAAGAGAGAAGUGAACCAGAGAAACACCCGUUGUGGUAUAUUACCUGGUA [C12U A49C]

[0.203, 0.169]

Parameter requested: self-cleavage. Apply to each item below.
1. GUCCUCUUUCACGUGCGCGUGAAAGAGAGAAGUGAGCCAGAGAAACACACGUUAUGGUAUAUUACCUGGUA [A36G G54A]
2. GUCCUCUUUCACGUGCGCGUGAAAGAGAGAAGUGAACCAGAGAAAGACACGUUGUGGUUUAUUACCUGGUA [C46G A59U]
3. GUCCUCUUUCACGUGCGCGUGCAAGAGAGAAGUGAACCAGAGAAACACAUGUUGUGGUAUAUUACCUGGUA [A22C C50U]
4. GUCCUCUUUCACGUGCGCGUGAAAGAGAGAGGUGAACCAGAGAAACAAACGUUGUGGUAUAUUACCUGGUA [A31G C48A]
5. GUCCUCUUUCACGUGCGCGUGAAAGAGAGAAGUGAACCAGUGACACACACGUUGUGGUAUAUUACCUGGUA [A41U A44C]
6. GUCCUCUUUCACGAGCGCGUGAAAGAGAGAAGUGAACCAGAGAAACAAACGUUGUGGUAUAUUACCUGGUA [U14A C48A]

0.715
0.13
0.405
0.164
0.115
0.179

Parameter requested: self-cleavage. Apply to each item below.
1. GUCCUCUUUCACGUGCGCGUGAAAGAGAGAAGUGAACCAGAGAAUCACACGUUGUGGUAUAGUACCUGGUA [A45U U62G]
2. GUCCUCUGUCACGUGCGCGUGAAAGAGAGAAGUGAACCAGAGAAACACACGUUGUAGUAUAUUACCUGGUA [U8G G56A]

0.178
0.11

Parameter requested: self-cleavage. Apply to each item below.
1. GUCCUCUUUCACGUGCGCGUGAAAGAGAGAAGUGAACCAGAGAAACACACAUUGCGGUAUAUUACCUGGUA [G51A U55C]
2. GUCCUCUUUCACGUGCGCGUGAUAGAGAGAAGUGAACCAGAGAAACACACGUUGUGGUCUAUUACCUGGUA [A23U A59C]
3. GUCCUCUUUCACAUGCGCGUGAAAGAGAGAAGUGAACCAGAGAAACAGACGUUGUGGUAUAUUACCUGGUA [G13A C48G]
4. GUCAUCUUUCACGUGCGCGUGAAAGAGAGAAGUGAACCAGAGAAACACACGGUGUGGUAUAUUACCUGGUA [C4A U52G]
5. GUCCUCUUUCACGUGCGCGUGAAAGAGAGAAGUGAACCAGAGAAACACACGUUGUGGUAUAUUACCCGGUA [U67C]
6. GUCUUCUUUCACGUGCGCGGGAAAGAGAGAAGUGAACCAGAGAAACACACGUUGUGGUAUAUUACCUGGUA [C4U U20G]

[0.405, 0.0742, 0.118, 0.22, 0.227, 0.213]
